assay-details: Cell Viability - LYMP2-002 (AID 977);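 note: compound exposure lasted 24 h at 37 °C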
study-conditions: LYMP2-002 lymphoblastoid cell viability, qHTS; series mostly up to 92.2 µM
Inconclusive results are not listed. Active and inactive are the calls of the source. Calls come from the whole dose curve; as a rule, active = well fitted cell-killing curve with a large enough effect; inconclusive = small, poorly fitted or top-dose-only effect; inactive = flat fitted curve, though single readings scatter.
Labels: active, inactive

- record-smiles: "O=[N+]([O-])c1c(Cl)c(Cl)cc(Cl)c1Cl"
  class-label: "inactive"
- record-smiles: "CC(=O)[O][Hg][c]1ccccc1"
  class-label: "active"
- record-smiles: "CN(C)NC(=O)CCC(=O)O"
  class-label: "inactive"
- record-smiles: "O=C(O)COc1ccccc1"
  class-label: "inactive"
- record-smiles: "Nc1ccc(Cl)cc1"
  class-label: "inactive"

----------
Tested on: MCC-26
assay-details: qHTS assay to identify novel small-molecules to repurpose for Merkel cell carcinoma treatment (AID 1296009); note: nearly all actives have a fitted effect of over 60% in size
study-conditions: MCC and control cell lines, CellTiter-Glo viability, 72 h; series mostly up to 46 µM
Source text: MCC is a rare and aggressive neuroendocrine skin cancer with limited treatment options. Approximately 80% of MCCs have the Merkel cell polyomavirus (MCPyV) DNA integrated into the host genome (virus-positive: VP-MCC) and viral oncogenes drive oncogenesis. The remaining MCCs are virus-negative (VN-MCC) and are caused by UV mutagenesis. […] Using cell viability as a readout (CellTiter-Glo assay) we found both overlapping and distinct drugs that can be repurposed for the treatment of VP-MCC and VN-MCC. […]
Records with an inconclusive call do not appear. Activity calls are given as the source filed them. Calls follow the shape of the dose curve; as a rule, active = well fitted inhibition curve with a large enough effect; inconclusive = small, poorly fitted or top-dose-only effect; inactive = flat fitted curve, though single readings scatter.
Labels: class 1 = active, class 0 = inactive

- compound: "C[C@]12CC[C@H]3[C@@H](CCC4=CC(=O)CC[C@@]43C)[C@H]1CC[C@H]2OC(=O)CCC1CCCC1"
  class-label: "class 0"
- compound: "CO/C=C(/C(=O)OC)c1ccccc1Oc1cc(Oc2ccccc2C#N)ncn1"
  class-label: "class 0"
- compound: "COC1=CC(C)=C[C@@H](C)[C@@H](O)[C@@H](C)CC(C)=CC=C[C@H](OC)[C@H]([C@@H](C)[C@@H](O)[C@H](C)[C@@]2(O)C[C@@H](O)[C@H](C)[C@@H](C(C)C)O2)OC1=O"
  class-label: "class 1"
- compound: "CCOCCOC(C)=O"
  class-label: "class 0"
- compound: "CC(C)(C)NC[C@H](O)c1ccc(O)cc1Cl"
  class-label: "class 0"
- compound: "CCc1c(C(=O)C(N)=O)c2c(OCC(=O)O)cccc2n1Cc1ccccc1"
  class-label: "class 0"
- compound: "CC1=NN=C(c2ccc(N)cc2)c2cc3c(cc2C1)OCO3"
  class-label: "class 0"
- compound: "O=C(O)COc1nc(Cl)c(Cl)cc1Cl"
  class-label: "class 0"
- compound: "CSCC[C@@H](NC(=O)[C@@H](Cc1ccccc1)NC(=O)CNC(=O)CNC(=O)[C@@H](N)Cc1ccc(O)cc1)C(=O)O"
  class-label: "class 0"
- compound: "Clc1ccccc1C(c1ccccc1)(c1ccccc1)n1cccn1"
  class-label: "class 0"
- compound: "N#C[C@H](O[C@@H]1O[C@H](CO[C@@H]2O[C@H](CO)[C@H](O)[C@H](O)[C@H]2O)[C@H](O)[C@H](O)[C@H]1O)c1ccccc1"
  class-label: "class 0"
- compound: "CC[C@@H](C(N)=O)N1CCCC1=O"
  class-label: "class 0"
- compound: "Cc1c(C(=O)Nc2cccc(C(F)(F)F)c2)cc(-c2ccccc2)n1CCCN1CCOCC1"
  class-label: "class 0"
- compound: "CCC(=O)OC1CCC2C3CCC4=CC(=O)CC[C@@]4(C)C3CC[C@]12C (stereo partly specified)"
  class-label: "class 0"
- compound: "COC1=C[C@@H]2[C@@H]3Cc4ccc(OC)c(O)c4[C@]2(CCN3C)CC1=O"
  class-label: "class 0"
- compound: "O=C(N[C@H]1CN2CCC1CC2)c1ccc(Cl)cc1"
  class-label: "class 0"
